assay: Tmax in healthy volunteer (3 volunteers) at 100 mg, po administered as single dose by capillary column gas chromatographic method; assay type: ADME, organism-based; conditions: human, in vivo
PARAMETER: Tmax (min)
Answer in min, number only, no unit symbol.

Any idea what Tmax was measured for O=C([O-])Cc1ccccc1Nc1c(Cl)cccc1Cl.[Na+] [DICLOFENAC SODIUM] ?
19.8

----------
assay: Apparent elimination half life in healthy volunteer (3 volunteers) at 100 mg, po administered as single dose by capillary column gas chromatographic method; type: ADME, organism-based; settings: human, in vivo, read-out: betat1/2(app) (converted)
PARAMETER: half-life
Express your answer as a number followed by its unit.

Look up half-life for this compound: O=C([O-])Cc1ccccc1Nc1c(Cl)cccc1Cl.[Na+] [DICLOFENAC SODIUM]
1 h
